The reported numbers originate from patent US20160145257A1.

# assay.target: hTRPC5 (Homo sapiens, UniProt Q9UL62)
# Construct: expressed in transfected cells; host or cells: HEK293 TREx cells with inducible TRPC5 expression
# Sequence (Q9UL62 whole entry): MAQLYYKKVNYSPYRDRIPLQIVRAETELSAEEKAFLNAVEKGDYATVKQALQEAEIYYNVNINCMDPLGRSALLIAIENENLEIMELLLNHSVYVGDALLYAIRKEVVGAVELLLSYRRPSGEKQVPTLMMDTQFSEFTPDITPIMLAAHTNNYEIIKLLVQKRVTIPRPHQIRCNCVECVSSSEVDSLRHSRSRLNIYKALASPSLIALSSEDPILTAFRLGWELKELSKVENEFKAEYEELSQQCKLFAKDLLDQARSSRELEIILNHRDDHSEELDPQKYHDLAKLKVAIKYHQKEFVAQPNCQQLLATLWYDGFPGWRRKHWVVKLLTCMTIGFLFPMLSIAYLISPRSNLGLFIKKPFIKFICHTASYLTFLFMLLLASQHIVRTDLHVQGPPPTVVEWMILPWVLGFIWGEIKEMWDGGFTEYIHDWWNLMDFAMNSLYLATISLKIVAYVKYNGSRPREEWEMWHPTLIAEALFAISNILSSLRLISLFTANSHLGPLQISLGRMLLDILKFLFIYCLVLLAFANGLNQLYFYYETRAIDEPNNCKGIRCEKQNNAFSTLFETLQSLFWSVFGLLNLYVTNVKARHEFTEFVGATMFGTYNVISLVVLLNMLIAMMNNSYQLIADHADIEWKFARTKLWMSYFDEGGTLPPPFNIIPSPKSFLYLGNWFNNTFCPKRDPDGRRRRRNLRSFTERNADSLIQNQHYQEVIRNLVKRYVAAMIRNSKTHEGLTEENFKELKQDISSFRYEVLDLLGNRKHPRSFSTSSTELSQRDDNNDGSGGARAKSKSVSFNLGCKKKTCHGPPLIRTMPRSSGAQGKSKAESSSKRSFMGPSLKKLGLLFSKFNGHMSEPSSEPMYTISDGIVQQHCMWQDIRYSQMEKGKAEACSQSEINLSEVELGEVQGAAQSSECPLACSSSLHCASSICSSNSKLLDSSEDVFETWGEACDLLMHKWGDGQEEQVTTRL
# procedure.summary: Whole-cell patch clamp, block of LaCl3-activated TRPC5 inward current
# Format: cell-based
# applied.conditions: TRPC5-expressing HEK293 TREx cells, 80 μM LaCl3, inward current, IC50 estimated from 5 μM and 500 nM, read-out: hTRPC5 Patch La3+ Inwd (nM) (All Batches)
Each entry below carries its recorded IC50.

Below: 5 compounds and their reported IC50.
compound: CCOC(=O)C(C)CCc1nc2c(c(=O)n(C)c(=O)n2C)n1Cc1cccc(Br)c1 (centres unmarked) [Compound 136]
test.readout: IC50
endpoint.value: 1000 to 2000 nM
//
compound: CCc1coc(CSc2nc3c(c(=O)n(C)c(=O)n3C)n2Cc2cccc(OC(F)(F)F)c2)n1 [Compound 106]
test.readout: IC50
endpoint.value: 100 to 500 nM
//
compound: CCCOCCc1nc2c(c(=O)n(C)c(=O)n2C)n1Cc1ccc(C#N)cc1 [Compound 118]
test.readout: IC50
endpoint.value: 2000 to 10000 nM
//
compound: CCc1coc(CSc2nc3c(c(=O)n(C)c(=O)n3C)n2Cc2ccc(OC)cc2)n1 [Compound 131]
test.readout: IC50
endpoint.value: 500 to 1000 nM
//
compound: CCOCCOc1nc2c(c(=O)n(C)c(=O)n2C)n1Cc1cccc(Br)c1 [Compound 18]
test.readout: IC50
endpoint.value: 1000 to 2000 nM

Qu. What does the record list as IC50 for CCc1coc(CSc2nc3c(c(=O)n(C)c(=O)n3C)n2Cc2ccc(C#N)cc2)n1 [Compound 169] ?
Ans. 1000 to 2000 nM

Qu. Also CCc1coc(CSc2nc3c(c(=O)n(C)c(=O)n3C)n2Cc2ccc(Cl)cc2)n1 [Compound 146] ?
Ans. < 100 nM

Qu. Also CN(C)C(=O)c1cccc(Oc2nc3c(c(=O)n(C)c(=O)n3C)n2Cc2cccc(Br)c2)c1 [Compound 127] ?
Ans. 2000 to 10000 nM

====

# assay.target: hTRPC5 (Homo sapiens)
# Construct: expressed in transfected cells; host or cells: HEK293 TREx cells with inducible TRPC5 expression
# procedure.summary: Whole-cell patch clamp, block of LaCl3-activated TRPC5 inward current
# Type: cell-based
# applied.conditions: TRPC5-expressing HEK293 TREx cells, 80 μM LaCl3, inward current, IC50 estimated from 5 μM and 500 nM, read-out: hTRPC5 Patch La3+ Inwd (nM) (All Batches)
Structures can show the parent of a compound that is named as a salt.
Each entry below carries its recorded IC50.

Below: 8 compounds and their reported IC50.
compound: Cc1ccc(Oc2nc3c(c(=O)n(C)c(=O)n3C)n2Cc2cccc(Cl)c2)cc1
assay.target: hTRPC5 (Homo sapiens)
IC50: 2000 to 10000 nM
--
compound: CCCCC(O)c1nc2c(c(=O)n(C)c(=O)n2C)n1Cc1cccc(Br)c1 (stereo not shown)
assay.target: hTRPC5 (Homo sapiens)
IC50: 2000 to 10000 nM
--
compound: CCCCCCOc1nc2c(c(=O)n(C)c(=O)n2C)n1Cc1ccc(Cl)cc1
assay.target: hTRPC5 (Homo sapiens)
IC50: < 100 nM
--
compound: CCc1cnc(CSc2nc3c(c(=O)n(C)c(=O)n3C)n2Cc2cccc(Br)c2)o1
assay.target: hTRPC5 (Homo sapiens)
IC50: 100 to 500 nM
--
compound: Cc1coc(-c2cccc(Oc3nc4c(c(=O)n(C)c(=O)n4C)n3Cc3cccc(Br)c3)c2)n1
assay.target: hTRPC5 (Homo sapiens)
IC50: 2000 to 10000 nM
--
compound: Cn1c(=O)c2c(nc(Oc3cccc(C(F)(F)F)c3)n2S(=O)(=O)c2ccc(Cl)cc2)n(C)c1=O
assay.target: hTRPC5 (Homo sapiens)
IC50: 2000 to 10000 nM
--
compound: CCc1coc(CSc2nc3c(c(=O)n(C)c(=O)n3C)n2Cc2ccc(OC(F)(F)F)cc2)n1
assay.target: hTRPC5 (Homo sapiens)
IC50: 100 to 500 nM
--
compound: CCOCCNc1nc2c(c(=O)n(C)c(=O)n2C)n1Cc1cccc(Br)c1
assay.target: hTRPC5 (Homo sapiens)
IC50: 2000 to 10000 nM

Qu. What does the record list as IC50 for CCCOCCc1nc2c(c(=O)n(C)c(=O)n2C)n1Cc1ccc(F)cc1 ?
Ans. 2000 to 10000 nM

Qu. Also CN(C)Cc1cccc(Oc2nc3c(c(=O)n(C)c(=O)n3C)n2Cc2ccc(Cl)cc2)c1 [Compound 164, hydrochloride] ?
Ans. 2000 to 10000 nM

Qu. Also CCCC(=O)CSc1nc2c(c(=O)n(C)c(=O)n2C)n1Cc1cccc(Br)c1 ?
Ans. < 100 nM

Qu. Also Cn1c(=O)c2c(nc(Oc3cccc(C(F)(F)F)c3)n2Cc2ccc3ccccc3c2)n(C)c1=O ?
Ans. 2000 to 10000 nM
